MEASUREMENT_TARGET: chemically synthesized HIV protease (Human immunodeficiency virus type 1 group M subtype B, UniProt P12497, C555A/C583A)
Construct: The HIV protease was chemically synthesized; made in house; host or cells: chemical peptide synthesis, no expression host
Type: biochemical
STATED_CONDITIONS: inhibitor 1 mM

MOLECULE: CC[C@H](C)[C@H](NC(=O)[C@@H]1CCCN1C(=O)[C@H](O)[C@H](Cc1ccccc1)NC(=O)OC(C)(C)C)C(=O)OC1CCCCC1 [Example 29, Boc-(2R,3S)-AHPBA-Pro-Ile-O--C6 H11]
Residual Activity (%) 1 mM: 88.3
--
MOLECULE: CC[C@H](C)[C@H](NC(=O)[C@@H]1CCCN1C(=O)[C@@H](O)[C@H](Cc1ccccc1)NC(=O)OC(C)(C)C)C(=O)NCC1CCCCC1 [Example 30]
Residual Activity (%) 1 mM: 23.4
--
MOLECULE: N[C@@H](Cc1ccccc1)C(=O)N[C@@H](CO)C(=O)N[C@@H](Cc1ccccc1)[C@@H](O)C(=O)NCC1CCCCC1 [Example 13, H-Phe-Ser-(2R,3S)-AHPBA-NH--CH2 --C6 H11]
Residual Activity (%) 1 mM: 58.9
--
MOLECULE: CC[C@H](C)[C@H](NC(=O)[C@@H]1CCCN1C(=O)[C@H](O)[C@H](Cc1ccccc1)NC(=O)OC(C)(C)C)C(=O)NCC1CCCCC1 [Example 31]
Residual Activity (%) 1 mM: 47.4
--
MOLECULE: CC(C)(C)OC(=O)N[C@@H](Cc1ccccc1)C(=O)N[C@@H](CC(N)=O)C(=O)N[C@@H](Cc1ccccc1)[C@H](O)C(=O)NCC1CCCCC1 [Example 4]
Residual Activity (%) 1 mM: 20.3
--
MOLECULE: N[C@@H](CO)C(=O)N[C@@H](Cc1ccccc1)[C@H](O)C(=O)NCC1CCCCC1 [Example 14, H-Ser-(2S,3S)-AHPBA-NH--CH2 --C6 H11]
Residual Activity (%) 1 mM: 95.5
--
MOLECULE: CC(C)(C)OC(=O)N[C@@H](CC(N)=O)C(=O)N[C@@H](Cc1ccccc1)[C@H](O)C(=O)NCC1CCCCC1 [Example 3, Boc-Asn-(2S,3S)-AHPBA-NH--CH2 --C6 H11]
Residual Activity (%) 1 mM: 52.9
--
MOLECULE: CC(C)(C)OC(=O)N[C@@H](CO)C(=O)N[C@@H](Cc1ccccc1)[C@H](O)C(=O)NCC1CCCCC1 [Example 7, Boc-Ser-(2S,3S)-AHPBA-NH--CH2 --C6 H11]
Residual Activity (%) 1 mM: 15.6
--
MOLECULE: CC(C)(C)OC(=O)N[C@@H](CC(N)=O)C(=O)N[C@@H](Cc1ccccc1)[C@@H](O)C(=O)NCC1CCCCC1 [Example 1, Boc-Asn-(2R,3S)-AHPBA-NH--CH2 --C6 H11]
Residual Activity (%) 1 mM: 32.8
--
MOLECULE: NC(=O)C[C@H](NC(=O)[C@@H](N)Cc1ccccc1)C(=O)N[C@@H](Cc1ccccc1)[C@@H](O)C(=O)NCC1CCCCC1 [Example 10, H-Phe-Asn-(2R,3S)-AHPBA-NH--CH2 --C6 H11]
Residual Activity (%) 1 mM: 43.4
--
MOLECULE: NC(=O)C[C@H](N)C(=O)N[C@@H](Cc1ccccc1)[C@@H](O)C(=O)NCC1CCCCC1 [Example 9, H-Asn-(2R,3S)-AHPBA-NH--CH2 --C6 H11]
Residual Activity (%) 1 mM: 92.1
